system-name: GST-ANAC092(1-176) (Arabidopsis thaliana, UniProt Q9FKA0 1-176)
Sequence: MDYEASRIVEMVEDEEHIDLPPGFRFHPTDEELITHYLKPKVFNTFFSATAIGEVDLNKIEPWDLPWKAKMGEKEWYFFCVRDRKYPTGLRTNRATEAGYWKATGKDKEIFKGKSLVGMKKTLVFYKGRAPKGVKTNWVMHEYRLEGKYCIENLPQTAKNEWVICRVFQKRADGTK
test-name: universal protein binding microarray (PBM); transcription factors of Arabidopsis thaliana; high values mean tight binding
condition-parameters: protein: recombinant; tags: GST; chain copies: 2; dsDNA, one strand shown
Below is a list of entries, each paired with its recorded binding signal value.

sequence-text | binding signal
GACGTGTA | 0.409 E-score
AAGCACGC | 0.32 E-score
TGCGTGAA | 0.325 E-score
ACACGCAT | 0.462 E-score
AACACGCC | 0.391 E-score
GCGTGTAC | 0.403 E-score
ATTAAGTA | 0.0822 E-score
AGTCAATC | 0.0925 E-score
TACACGCA | 0.467 E-score
AGGGTAAG | 0.0785 E-score
TGAAGAAA | 0.188 E-score
GGTCAAAA | 0.0966 E-score
ACGCCATG | 0.336 E-score
AACGTAAA | 0.254 E-score
AATACGCA | 0.411 E-score
CACACGCA | 0.453 E-score
CGACACGC | 0.316 E-score
CAGTCAAG | 0.051 E-score
GGCGTGTA | 0.4 E-score
GTACGTTA | 0.42 E-score
ACTTAACC | 0.197 E-score
GGGTCAAA | 0.0694 E-score
CACGGAAG | 0.372 E-score
ACGTACGC | 0.212 E-score
AAGGTCAA | 0.138 E-score
CGTGCACG | 0.354 E-score
ACGTAACC | 0.442 E-score
ACGGAACA | 0.224 E-score
AAGTCAGA | 0.0562 E-score
TAAGGAAA | 0.212 E-score
AGGAAACG | 0.207 E-score
CAACACGC | 0.418 E-score
ATCGCGTG | 0.382 E-score
GTCAAAAA | 0.114 E-score
ATGACGTG | 0.458 E-score
CTAAGTTA | 0.294 E-score
ACTGGTCA | 0.127 E-score
CCAGTCAA | 0.0755 E-score
CACGTAAG | 0.449 E-score
GCGTGTAA | 0.444 E-score
AACGTAAC | 0.335 E-score
AGGAAATC | 0.0998 E-score
GCCGTGTA | 0.341 E-score
CCCCACCC | 0.209 E-score
ACTCAACC | 0.366 E-score
AGCGTAAG | 0.191 E-score
